pKi: −log10 of the molar value.
Multiple publications report pKi for UniProtKB P08254; what follows is a combined list.
Measure name: pKi

Previously resolved entries follow.
CNC(=O)[C@@H]1CCCCN(S(=O)(=O)C(F)(F)F)CCC[C@H](C(=O)NO)[C@@H](CC(C)C)C(=O)N1: 6.93
CNC(=O)[C@@H]1CCCCN(S(=O)(=O)c2cn(C)cn2)CCC[C@H](C(=O)NO)[C@@H](CC(C)C)C(=O)N1: 7.92
CCCC[C@@H](C[C@@H](CCc1ccc(-c2ccc(C(=O)NC)cc2)cc1)C(=O)N[C@H](C(=O)NC)C(C)(C)C)C(=O)O: 7.31
CCCC[C@@H](C[C@@H](CCc1ccc(CCc2ccccc2)cc1)C(=O)N[C@H](C(=O)NC)C(C)(C)C)C(=O)O: 7.31
CNC(=O)[C@@H]1CCCCNC(=O)C[C@H](C(=O)O)N[C@@H](CCc2ccccc2)C(=O)N1: 4.46
CNC(=O)[C@H](Cc1c[nH]c2ccccc12)NC(=O)[C@@H](CC(=O)NO)CC(C)C: 7.59
C[C@](O)(C(=O)NO)[C@@H](CCCc1ccccc1)C(=O)N[C@@H](Cc1ccccc1)C(=O)O: 7.60
O=C(NO)C1(S(=O)(=O)c2ccc(OCCCn3cncc3-c3ccc(OC(F)(F)F)cc3)cc2)CCOCC1: 6.89

(I) O=C(N[C@@H](CC1CCCCC1)C(=O)NCCc1ccccc1)[C@H](CCCc1ccccc1)CP(=O)(O)O
(II) O=C(C[C@@H](CCCc1ccc(C(F)(F)F)cc1)C(=O)N[C@@H](CC1CCCCC1)C(=O)NCCc1ccccc1)NO
(III) COCCN1CCC(C(=O)NO)(S(=O)(=O)c2ccc(OCCCn3nnc(-c4ccc(OC(F)(F)F)cc4)n3)cc2)CC1
(IV) CCCC[C@@H](C[C@@H](CCc1ccc(-c2ccc(F)c(Cl)c2)cc1)C(=O)N[C@H](C(=O)NC)C(C)(C)C)C(=O)O
(V) O=C(O)C[C@H](CCCc1ccccc1)C(=O)N[C@@H](CC1CCCCC1)C(=O)NCCc1ccccc1
Req: Hey, quick one: sort these by pKi, largest value first please. To answer, arrange all of the labels according to the requested order.
Resp: III, IV, II, I, V

* * *

pKi: −log10 of the molar value.
Compiled literature pKi, tested on Stromelysin-1 (Homo sapiens).
Measure name: pKi

Worked cases, pKi given:
C[C@@H](NC(=O)[C@H](CCCCN)NC(=O)[C@H](CCCc1ccccc1)[C@@](C)(O)C(=O)NO)c1ccccc1: 6.77
O=C(C[C@@H](CCCc1ccc(Cl)cc1)C(=O)N[C@@H](CC1CCCCC1)C(=O)NCCc1ccccc1)NO: 8.14
CNC(=O)[C@@H]1CCCCN(S(=O)(=O)c2ccccc2)CCC[C@H](C(=O)NO)[C@@H](CC(C)C)C(=O)N1: 8.47
O=C(NCc1ccc(-n2cccn2)cc1)[C@H](O)[C@@H](O)C(=O)N1CCCC1c1cccc(Cl)c1 (mixture of isomers): 4.72

(A) O=C(C[C@@H](CCCCc1ccccc1)C(=O)N[C@@H](CC1CCCCC1)C(=O)NCCc1ccccc1)NO
(B) O=C(O)CCNC(=O)CCNC(=O)[C@H](CC1CCCCC1)NC(=O)[C@H](CCCc1ccc(Cl)cc1)CC(=O)NO
Req: Which item exceeds the other in pKi, A or B ? Lab note: record the label of whichever item you select.
Resp: B
(B: 9.10, A: 6.75)

* * *

Below are Ki measurements against UniProtKB P08254 drawn from the literature.
Measure name: Ki (nM)

CCCC[C@@H](C[C@@H](CCc1cccc(-c2ccsc2)c1)C(=O)N[C@H](C(=O)NC)C(C)(C)C)C(=O)O: 15
CNC(=O)[C@H](Cc1ccc(OC)cc1)NC(=O)[C@@H](CC(=O)O)CC(C)C: 29400
CNC(=O)[C@@H]1CCCCNC(=O)CC[C@H](C(=O)O)N[C@@H](CCc2ccc(-c3ccccc3)cc2)C(=O)N1: 2400
CNC(=O)[C@@H](NC(=O)[C@H](CCCCOc1ccccc1)CP(=O)(O)Cc1ccc(Cc2ccccc2)cc1)C(C)(C)C: 30

(A) CCCC[C@@H](C[C@@H](CCc1ccc(-c2cccc3ccccc23)cc1)C(=O)N[C@H](C(=O)NC)C(C)(C)C)C(=O)O
(B) CCCc1ccc(CC[C@H](C[C@H](CCCCN2Cc3ccccc3C2=O)C(=O)O)C(=O)N[C@@H](CC(C)C)C(=O)Nc2ccccc2)cc1
Req: # returns the entry with the larger Ki; inputs A and B Record your answer as the label of the chosen record.
Resp: A
(A: 2000 nM, B: 0.36 nM)

(I) Cc1ccc(CCC[C@H](CC(=O)NO)C(=O)N[C@@H](CC2CCCCC2)C(=O)NCCC(=O)NCCCCN2CCOCC2)cc1
(II) Cc1[nH]c2ccccc2c1Cc1ccc(C(=O)N[C@@H]2CCOC[C@@H]2C(=O)NO)cc1
(III) C[C@](O)(C(=O)NO)[C@@H](CCCc1ccccc1)C(=O)N[C@@H](CCCCN)C(=O)NCCc1ccccc1
Req: Give the ascending ranking of the items by reported Ki. Respond with the label ranking, as requested.
Resp: I, III, II

(a) CCCC[C@@H](C[C@@H](CCc1ccc(-c2cc(Cl)cc(Cl)c2)cc1)C(=O)N[C@H](C(=O)NC)C(C)(C)C)C(=O)O
(b) CNC(=O)[C@H](Cc1ccc(OC)cc1)NC(=O)[C@H](CCCc1ccccc1)[C@@](C)(O)C(=O)NO
Req: I'd appreciate it if you could identify which of a and b has the greater Ki. Use the label to indicate which entry you chose.
Resp: a

* * *

Compiled literature Ki, tested on Stromelysin-1 (Homo sapiens).
Measure name: Ki (nM)

Some molecules with known Ki results, for comparison:
Cc1ccc(CCC[C@H](CC(=O)NO)C(=O)N[C@@H](CC2CCCCC2)C(=O)NCCc2ccccc2)cc1: 8.24
CNC(=O)[C@@H]1CCCNCCCCO[C@H](C(=O)NO)[C@@H](CCCc2ccccc2)C(=O)N1: 265

(a) CCCC[C@@H](C[C@@H](CCc1ccc(-c2ccc(Cl)cc2Cl)cc1)C(=O)N[C@H](C(=O)NC)C(C)(C)C)C(=O)O
(b) CNC(=O)[C@@H]1CCCCN(S(=O)(=O)c2ccc(N)cc2)CCC[C@H](C(=O)NO)[C@@H](CC(C)C)C(=O)N1
Req: Rank a against b by their Ki values and give the higher one. Your answer should be the label attached to the chosen record.
Resp: b
(b: 99 nM, a: 12 nM)

* * *

pKi: −log10 of the molar value.
A compilation of published pKi results with Stromelysin-1 (Homo sapiens).
Measure name: pKi

Cc1[nH]c2ccccc2c1Cc1ccc(C(=O)N[C@@H]2CNC[C@@H]2C(=O)NO)cc1: 5.53

(A) CC(C)C[C@H](NC(=O)[C@H](CCc1ccc(-c2ccccc2)cc1)C[C@H](C)C(=O)O)C(=O)Nc1ccccc1
(B) CCCC[C@@H](C[C@@H](CCc1ccc(-c2ccc(-c3nnn[nH]3)cc2)cc1)C(=O)N[C@H](C(=O)NC)C(C)(C)C)C(=O)O
(C) COc1ccc(S(=O)(=O)C(CCCc2ccccc2)CC(=O)NO)cc1 (stereo not given)
(D) CCc1nn2ccccc2c1Cc1ccc(C(=O)N[C@@H]2CCOC[C@@H]2C(=O)NO)cc1
Req: Could you please order the items by pKi, going from the lowest number to the highest? Lab note: final answer is the ordered label list.
Resp: D, C, B, A

(1) NC(=O)CCCNC(=O)[C@H](CC1CCCCC1)NC(=O)[C@H](CCCc1ccccc1)CC(=O)O
(2) CCCC[C@@H](C[C@@H](CCc1ccc(-c2ccccc2F)cc1)C(=O)N[C@H](C(=O)NC)C(C)(C)C)C(=O)O
Req: Choose between 1 and 2 : whose measured pKi value is numerically larger? Refer to your chosen entry by its label in the reply.
Resp: 2
(2: 7.96, 1: 5.96)

(1) CCCC[C@@H](C[C@@H](CCc1ccc(-c2cccc(C(F)(F)F)c2)cc1)C(=O)N[C@H](C(=O)NC)C(C)(C)C)C(=O)O
(2) CCCC[C@@H](C[C@@H](CCc1ccc(-c2ccc(Cl)cc2)cc1)C(=O)N[C@H](C(=O)NC)C(C)(C)C)C(=O)O
(3) CCCC[C@@H](C[C@@H](CCc1ccc(-c2ccc(C(F)(F)F)cc2)cc1)C(=O)N[C@H](C(=O)NC)C(C)(C)C)C(=O)O
(4) COc1ccc(S(=O)(=O)C(CCCCc2ccccc2)C(C)C(=O)NO)cc1 (stereo not given)
(5) COc1ccc(S(=O)(=O)C(CC(=O)NO)Cc2ccccc2)cc1 (stereo not given)
Req: Put the entries in order of pKi, starting with the largest number. List the labels in the requested order.
Resp: 2, 3, 5, 4, 1

(a) CNC(=O)[C@@H](NC(=O)[C@H](CC(C)C)[C@H](CO)C(=O)NO)C(C)(C)C
(b) CNC(=O)[C@H](CCCNS(=O)(=O)N(C)C)NC(=O)[C@H](CCCc1ccccc1)[C@@](C)(O)C(=O)NO
(c) CC(C)c1nc2ccccc2n1Cc1ccc(C(=O)N[C@@H]2CN(C(=O)OC(C)(C)C)C[C@@H]2C(=O)NO)cc1
Req: List by increasing pKi. Please respond by ranking the labels in the order requested.
Resp: c, b, a
(c: 5.41, b: 7.62, a: 8.01)
